Each recorded value in this set is attributed to ChEMBL document CHEMBL1201862.

TARGET SYSTEM: UniProtKB O14727
Sequence (O14727 whole entry): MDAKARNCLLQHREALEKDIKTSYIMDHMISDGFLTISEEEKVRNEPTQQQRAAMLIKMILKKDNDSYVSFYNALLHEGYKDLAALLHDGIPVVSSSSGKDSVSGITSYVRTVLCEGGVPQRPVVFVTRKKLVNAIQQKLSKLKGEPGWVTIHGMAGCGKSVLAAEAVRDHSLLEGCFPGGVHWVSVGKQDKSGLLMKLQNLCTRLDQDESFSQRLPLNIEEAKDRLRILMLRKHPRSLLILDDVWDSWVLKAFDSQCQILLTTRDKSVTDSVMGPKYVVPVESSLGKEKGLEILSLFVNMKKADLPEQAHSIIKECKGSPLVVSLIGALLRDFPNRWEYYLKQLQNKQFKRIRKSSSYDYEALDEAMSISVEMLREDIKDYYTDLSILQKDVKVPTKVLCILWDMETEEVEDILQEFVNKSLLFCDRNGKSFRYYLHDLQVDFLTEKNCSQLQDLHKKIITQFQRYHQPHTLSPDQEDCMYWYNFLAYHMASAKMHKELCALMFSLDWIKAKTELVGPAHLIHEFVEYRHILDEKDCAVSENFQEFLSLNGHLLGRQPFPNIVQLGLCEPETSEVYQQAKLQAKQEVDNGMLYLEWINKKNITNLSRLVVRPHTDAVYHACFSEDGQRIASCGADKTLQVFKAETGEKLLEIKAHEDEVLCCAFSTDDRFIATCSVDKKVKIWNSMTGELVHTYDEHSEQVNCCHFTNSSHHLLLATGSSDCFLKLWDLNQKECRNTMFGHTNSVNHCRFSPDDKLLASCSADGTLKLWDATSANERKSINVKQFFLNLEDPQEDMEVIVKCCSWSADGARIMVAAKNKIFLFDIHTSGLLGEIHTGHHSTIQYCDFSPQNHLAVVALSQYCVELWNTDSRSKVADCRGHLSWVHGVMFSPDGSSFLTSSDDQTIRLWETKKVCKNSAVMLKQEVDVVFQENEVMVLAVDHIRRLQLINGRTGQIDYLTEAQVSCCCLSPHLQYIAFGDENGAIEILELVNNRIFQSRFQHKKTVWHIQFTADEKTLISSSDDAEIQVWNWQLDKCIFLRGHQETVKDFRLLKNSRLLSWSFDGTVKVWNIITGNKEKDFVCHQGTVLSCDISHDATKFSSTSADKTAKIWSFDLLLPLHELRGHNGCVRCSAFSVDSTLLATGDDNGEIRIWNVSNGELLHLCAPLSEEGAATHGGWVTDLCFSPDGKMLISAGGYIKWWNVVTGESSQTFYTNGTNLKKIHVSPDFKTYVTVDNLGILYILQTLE
Format: functional
Active and inactive are the calls of the source.
Would you mind answering with one of these outcomes? active, inactive

QUERY: Hi, do you know how CCCCCCOc1ccc(/C(C)=N/NC2=NCCN2)cc1[N+](=O)[O-] came out in this test?
RESULT: active

QUERY: Next record, please: CC(C)C(C(=O)O)N1C(=O)/C(=C/C=C/c2ccco2)SC1=S (stereo unspecified)
RESULT: inactive

QUERY: Next record, please: Cc1ccc(N=Nc2c(N)nn3c(O)cc(-c4ccccc4)nc23)cc1
RESULT: active

QUERY: Next record, please: CCCCOc1cc(NCc2ccccc2)c2ncn(C(C)C)c2c1
RESULT: active

QUERY: Next record, please: O=C(NCC(c1ccco1)N1CCCC1)c1cccc(S(=O)(=O)Nc2ccc(Br)cc2)c1 (stereo unspecified)
RESULT: active

QUERY: Next record, please: O=C(CCCN1CCc2[nH]c3ccc(F)cc3c2C1)c1ccc(F)cc1
RESULT: active

---

TARGET SYSTEM: Cytochrome P450 2D6 (Homo sapiens, UniProt P10635);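 note: CYP2D6 member of a cytochrome P450 panel assay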
Sequence (P10635 whole entry): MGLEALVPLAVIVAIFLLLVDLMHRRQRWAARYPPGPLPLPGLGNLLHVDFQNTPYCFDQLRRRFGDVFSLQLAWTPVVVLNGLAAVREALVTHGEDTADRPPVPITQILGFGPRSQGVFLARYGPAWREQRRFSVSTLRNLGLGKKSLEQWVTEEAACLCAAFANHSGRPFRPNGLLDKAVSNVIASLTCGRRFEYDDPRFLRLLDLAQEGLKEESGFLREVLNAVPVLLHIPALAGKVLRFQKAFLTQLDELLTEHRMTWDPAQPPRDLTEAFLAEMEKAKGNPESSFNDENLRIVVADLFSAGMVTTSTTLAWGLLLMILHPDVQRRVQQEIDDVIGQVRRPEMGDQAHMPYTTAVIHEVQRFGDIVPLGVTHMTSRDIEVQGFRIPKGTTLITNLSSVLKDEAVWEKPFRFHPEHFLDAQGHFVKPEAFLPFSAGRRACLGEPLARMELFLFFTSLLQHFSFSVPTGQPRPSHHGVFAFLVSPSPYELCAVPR
ENDPOINT LABEL: AC50

QUERY: Record request: AC50 value, item C=CCOC(=O)/C(=C\c1cccc2ccccc12)NC(=O)c1ccccc1
RESULT: 22.4 µM (inconclusive)

QUERY: Next record, please: c1ccc(Nc2ncncc2-c2ccoc2)cc1
RESULT: 25.1 µM (inconclusive)

QUERY: Next record, please: COc1cccc(Cn2c(=O)cnc3cnc(OCc4ccccc4)nc32)c1
RESULT: 39.8 µM (inconclusive)

QUERY: Next record, please: O=C(CCCn1cnc([N+](=O)[O-])n1)Nc1ccc(Cl)c(Cl)c1
RESULT: 15.8 µM (inconclusive)

QUERY: Next record, please: O=c1c2ccccc2nnn1CSc1ccc2c(c1)OCCO2
RESULT: 28.2 µM (inconclusive)

QUERY: Next record, please: Cc1ccc(S(=O)(=O)N[C@H]2COC(=O)C/C=C\[C@@H](C)[C@H](NS(=O)(=O)c3ccc(C)cc3)COC(=O)[C@H](C)NC(=O)C/C=C\[C@H]2C)cc1
RESULT: 3.98 µM (inconclusive)

QUERY: Next record, please: Cc1c(OCC(F)(F)F)ccnc1C[S+]([O-])c1nc2ccccc2[nH]1 (stereo not drawn) [LANSOPRAZOLE]
RESULT: 12.6 µM (inconclusive)

QUERY: Next record, please: CC1=NCCc2c1[nH]c1cc(O)ccc21
RESULT: 7.94 µM (inconclusive)

QUERY: Next record, please: Cc1cnc(CNc2nc(-c3ccccc3Cl)nc3ccccc23)cn1
RESULT: 25.1 µM (inconclusive)

QUERY: Next record, please: Cc1cc(C=O)c(C)n1-c1ccc(NC2CCCC2)c([N+](=O)[O-])c1
RESULT: 8.91 µM (inconclusive)

QUERY: Next record, please: Cc1ccc(Cc2cnc(NC(=O)c3cccs3)s2)cc1
RESULT: 15.8 µM (inconclusive)

QUERY: Next record, please: CSc1nc(C)cc(Nc2ccc(O)c(CN3CCCCC3)c2)n1
RESULT: 3.16 µM (inconclusive)

QUERY: Next record, please: CCN1CCN(S(=O)(=O)c2ccc(Cl)nc2)CC1
RESULT: 12.6 µM (inconclusive)

---

TARGET SYSTEM: Induced myeloid leukemia cell differentiation protein Mcl-1 (Homo sapiens)
Sequence (Q07820 whole entry): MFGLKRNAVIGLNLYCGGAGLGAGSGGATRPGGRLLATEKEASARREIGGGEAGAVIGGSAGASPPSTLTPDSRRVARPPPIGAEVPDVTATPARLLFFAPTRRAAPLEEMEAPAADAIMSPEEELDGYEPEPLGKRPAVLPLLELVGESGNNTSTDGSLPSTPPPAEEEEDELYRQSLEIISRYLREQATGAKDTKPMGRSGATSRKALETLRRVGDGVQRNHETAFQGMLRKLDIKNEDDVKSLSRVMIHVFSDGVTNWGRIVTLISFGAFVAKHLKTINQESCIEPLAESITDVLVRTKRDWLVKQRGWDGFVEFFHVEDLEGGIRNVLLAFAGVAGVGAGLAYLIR
Type: functional
Activity calls are given as the source filed them.
Give IC50 for every item shown.

QUERY: Record request: IC50 value, item COc1ccc(C(=O)c2sc3nc(-c4ccccc4)ccc3c2N)cc1OC
RESULT: 1.27 µM (not active)

QUERY: Next record, please: O=C(COC(=O)c1c2c(nc3ccccc13)/C(=C/c1ccco1)CC2)NC1CCCC1
RESULT: 6.5 µM (active)

QUERY: Next record, please: O=C(N/N=C/c1cccc(F)c1)c1cc(-c2ccco2)nc2ccccc12
RESULT: 1.67 µM (active)

QUERY: Next record, please: CC(C)C(C(=O)O)N1C(=O)/C(=C/C=C/c2ccco2)SC1=S (configuration not stated)
RESULT: > 54 µM (active)

QUERY: Next record, please: Cc1ccc(N=Nc2c(N)nn3c(O)cc(-c4ccccc4)nc23)cc1
RESULT: 12.9 µM (active)

QUERY: Next record, please: O=c1c2c3nc4ccccc4nc3n(Cc3ccccc3)c2ncn1Cc1ccco1
RESULT: 6.14 µM (not active)

QUERY: Next record, please: Nc1c(C(=O)NCC2CCCO2)sc2nc3c(c(-c4ccco4)c12)CC/C3=C\c1ccco1 (configuration not stated)
RESULT: 1.22 µM (active)

QUERY: Next record, please: COc1ccc(S(=O)(=O)Nc2cc(Sc3nc[nH]n3)c(O)c3ccccc23)cc1
RESULT: 7.73 µM (active)

QUERY: Next record, please: COc1cc(/C=C(/NC(C)=O)C(=O)O)cc(Cl)c1OCc1ccc(Br)cc1
RESULT: 3.47 µM (not active)

QUERY: Next record, please: Cc1cc(N(CCO)CCO)ccc1C(c1ccc(N(CCO)CCO)cc1C)c1ccccc1Cl
RESULT: 2.71 µM (active)

QUERY: Next record, please: COc1ccc(/C=C2\C(=O)NC(=S)N2C(=O)c2ccc(C)cc2)cc1
RESULT: 1.53 µM (not active)

QUERY: Next record, please: COc1ccc(Cc2nnc(NC(=O)Cc3cccs3)s2)cc1OC
RESULT: 1.97 µM (active)

---

TARGET SYSTEM: Corticotropin-releasing factor receptor 2/Corticotropin-releasing factor-binding protein (Homo sapiens, UniProt P24387+Q13324)
Sequence (Q13324 whole entry): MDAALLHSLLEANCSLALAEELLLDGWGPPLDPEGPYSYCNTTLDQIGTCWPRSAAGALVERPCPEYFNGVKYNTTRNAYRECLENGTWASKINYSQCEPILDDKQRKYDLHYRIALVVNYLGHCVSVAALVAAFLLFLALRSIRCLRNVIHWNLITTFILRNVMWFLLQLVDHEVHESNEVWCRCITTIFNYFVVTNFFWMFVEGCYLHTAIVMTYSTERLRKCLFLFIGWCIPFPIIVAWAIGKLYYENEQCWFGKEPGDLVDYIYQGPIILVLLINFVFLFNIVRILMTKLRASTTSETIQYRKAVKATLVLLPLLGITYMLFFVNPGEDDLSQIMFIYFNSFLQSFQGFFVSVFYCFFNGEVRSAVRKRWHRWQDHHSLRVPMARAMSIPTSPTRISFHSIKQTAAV
Sequence (P24387 whole entry): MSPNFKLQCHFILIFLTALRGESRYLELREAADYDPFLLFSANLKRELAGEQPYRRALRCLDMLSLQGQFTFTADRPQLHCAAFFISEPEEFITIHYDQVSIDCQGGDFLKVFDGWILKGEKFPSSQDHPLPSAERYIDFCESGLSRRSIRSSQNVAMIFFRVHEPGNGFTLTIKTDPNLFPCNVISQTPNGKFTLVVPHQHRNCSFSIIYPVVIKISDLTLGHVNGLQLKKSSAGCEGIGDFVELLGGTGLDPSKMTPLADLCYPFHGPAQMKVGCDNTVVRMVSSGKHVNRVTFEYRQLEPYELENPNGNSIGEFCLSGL
TEST NAME: activators of CRF receptor 2 with binding protein – uHTS hits, confirmation (AID 602473)
Format: functional
MEASUREMENT SETUP: read-out: EC50_Mean
Active and inactive are the calls of the source.
Would you mind answering with one of these outcomes? active, inactive

QUERY: Hi, do you know how COc1ccccc1-n1c(=S)sc2c(=O)n(Cc3ccco3)c(SC)nc21 came out in this test?
RESULT: inactive

QUERY: Next record, please: Cc1ccc(/C=N/n2c(S)nnc2-c2cccc(Cl)c2)o1
RESULT: inactive

QUERY: Next record, please: Cc1[nH]c2ccccc2c1SCCNC(=O)c1ccc(S(=O)(=O)N2CCCC2)cc1
RESULT: inactive

QUERY: Next record, please: Cc1cc2c(=Cc3ccc(N(C)C)cc3)c3ccccc3n2[n+]1C
RESULT: inactive

QUERY: Next record, please: Cc1cc([N+](=O)[O-])ccc1NCc1ccccc1
RESULT: inactive

QUERY: Next record, please: CC1(c2ccc(Cl)cc2)NC(=O)N(CC(=O)N2CCc3ccccc32)C1=O (stereo unspecified)
RESULT: active

QUERY: Next record, please: CCOC(=O)C1CCCN(S(=O)(=O)c2ccccc2)C1 (stereo unspecified)
RESULT: inactive

QUERY: Next record, please: COc1cc(/N=C/c2c(O)oc3ccccc3c2=O)c(OC)cc1Cl
RESULT: inactive

QUERY: Next record, please: Cn1ccc(C(=O)Nc2sc3c(c2C(N)=O)CCCCC3)n1
RESULT: inactive

QUERY: Next record, please: CC(=O)Nc1ccccc1Sc1ccc2c3c(cccc13)C(=O)N(c1ccc(C)cc1)C2=O
RESULT: inactive

QUERY: Next record, please: COc1ccc(CN2CCCCC2C)cc1C (stereo unspecified)
RESULT: active

---

TARGET SYSTEM: Replicative DNA helicase DnaB (Mycobacterium tuberculosis)
Sequence (P9WMR3 1-399, added parts left off): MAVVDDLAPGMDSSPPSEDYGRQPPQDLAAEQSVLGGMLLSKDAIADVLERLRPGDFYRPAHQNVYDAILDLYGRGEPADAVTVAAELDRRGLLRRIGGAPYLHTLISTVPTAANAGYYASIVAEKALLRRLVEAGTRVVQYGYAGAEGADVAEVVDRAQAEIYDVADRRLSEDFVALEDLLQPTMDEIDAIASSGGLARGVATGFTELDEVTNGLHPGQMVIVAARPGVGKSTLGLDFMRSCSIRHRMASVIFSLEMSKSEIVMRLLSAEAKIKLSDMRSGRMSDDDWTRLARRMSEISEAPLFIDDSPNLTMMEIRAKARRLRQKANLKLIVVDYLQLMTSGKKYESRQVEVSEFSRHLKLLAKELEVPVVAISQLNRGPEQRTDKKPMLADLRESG
TEST NAME: DnaB intein splicing inhibitors, dose response, biochemical, cell-free fluorescence (AID 449749)
Format: functional
Calls of active or inactive are those of the source.
Would you mind answering with one of these outcomes? YES (active), NO (inactive)

QUERY: Hi, do you know how CSc1nnc(NC(=O)c2nc(S(=O)(=O)Cc3ccc(C)cc3)ncc2Cl)s1 came out in this test?
RESULT: YES

QUERY: Next record, please: CN(CCC#N)C(=O)Cn1nc(Cc2ccncc2)c2ccccc2c1=O
RESULT: NO

QUERY: Next record, please: CC(C)(C)n1nnnc1C(c1cccs1)N(Cc1cccnc1)Cc1ccccc1Cl (centres undefined)
RESULT: NO

QUERY: Next record, please: N#C/C(=C/c1cccn1-c1cccc(C(=O)O)c1)c1ccc(F)cc1
RESULT: YES

---

Give AC50 for every item shown.
TARGET SYSTEM: Cytochrome P450 3A4 (Homo sapiens);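 note: CYP3A4 tested as one member of a cytochrome P450 panel screen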
Sequence (P08684 whole entry): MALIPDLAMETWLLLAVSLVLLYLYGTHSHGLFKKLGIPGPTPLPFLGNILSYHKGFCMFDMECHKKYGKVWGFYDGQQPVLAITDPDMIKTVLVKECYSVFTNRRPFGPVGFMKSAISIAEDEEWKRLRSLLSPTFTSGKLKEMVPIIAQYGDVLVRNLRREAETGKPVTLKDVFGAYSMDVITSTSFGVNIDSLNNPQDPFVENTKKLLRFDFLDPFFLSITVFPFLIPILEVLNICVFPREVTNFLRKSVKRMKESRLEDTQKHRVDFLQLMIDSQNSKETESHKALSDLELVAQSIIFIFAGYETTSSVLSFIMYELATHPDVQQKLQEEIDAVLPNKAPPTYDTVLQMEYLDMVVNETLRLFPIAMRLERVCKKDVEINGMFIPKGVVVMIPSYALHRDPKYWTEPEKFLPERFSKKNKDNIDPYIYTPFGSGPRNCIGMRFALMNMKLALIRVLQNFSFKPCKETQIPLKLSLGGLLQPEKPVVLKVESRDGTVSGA

QUERY: Record request: AC50 value, item O=C1[C@@H]2[C@H]3[C@H](O)[C@H](O)C/C(=N/OC[C@@H](O)COCc4ccco4)[C@@H]3CC[C@H]2C(=O)N1c1ccc(F)cc1F
RESULT: 3.16 µM (inconclusive)

QUERY: Next record, please: O=C(Oc1ccccc1)N1CCC2(CCCN(c3cccc(-c4ccccc4)c3)C2)CC1
RESULT: 15.8 µM (inconclusive)

QUERY: Next record, please: O=P(O)(CP(=O)(c1ccccc1)c1ccccc1)c1ccccc1O
RESULT: 17.8 µM (inconclusive)

QUERY: Next record, please: Cc1cccc(C(=O)N2CCN(c3ccc([N+](=O)[O-])c(NCc4ccco4)c3)CC2)c1
RESULT: 28.2 µM (inconclusive)

QUERY: Next record, please: c1ccc(CSc2nnc3c4ccccc4c4ccccc4c3n2)cc1
RESULT: 3.98 µM (inconclusive)

QUERY: Next record, please: CCN(CC)CCCCCCCCOC(=O)c1cc(OC)c(OC)c(OC)c1
RESULT: 10 µM (inconclusive)

QUERY: Next record, please: CS(=O)(=O)N1CCC[C@@]2(CCN(c3ccccn3)C2)C1
RESULT: 20 µM (inconclusive)

QUERY: Next record, please: Cc1ccc(/N=C/c2nc(/C=C/c3cccc([N+](=O)[O-])c3)oc2O)cc1
RESULT: 3.16 µM (inconclusive)

QUERY: Next record, please: Cc1cnc(CNc2nc(-c3ccccc3Cl)nc3ccccc23)cn1
RESULT: 7.94 µM (inconclusive)

QUERY: Next record, please: CC(C)C(C(=O)O)N1C(=O)/C(=C/C=C/c2ccco2)SC1=S (configuration not stated)
RESULT: 31.6 µM (inconclusive)

QUERY: Next record, please: Cc1cc([N+](=O)[O-])ccc1NCc1ccccc1
RESULT: 14.1 µM (inconclusive)

QUERY: Next record, please: CCc1nc(N2CCC3(CC2)OCCO3)c2nnn(Cc3ccccc3Cl)c2n1
RESULT: 15.8 µM (inconclusive)

QUERY: Next record, please: CN(C)c1ncc2nc(-c3cc(F)cc(F)c3)c(=O)n(Cc3ccc(F)cc3)c2n1
RESULT: 31.6 µM (inconclusive)

QUERY: Next record, please: O=S(=O)(c1ccccc1)N1CCN(c2cc(-c3ccccc3)nc3ncnn23)CC1
RESULT: 14.1 µM (inconclusive)

QUERY: Next record, please: CCNc1ncc2nc(-c3ccc(OC)cc3)c(=O)n(Cc3cccs3)c2n1
RESULT: 7.94 µM (inconclusive)

QUERY: Next record, please: CCN(c1ccccc1)S(=O)(=O)c1ccc(NC(=S)NC(=O)c2cccs2)cc1
RESULT: 2.24 µM (inconclusive)

QUERY: Next record, please: CCS(=O)(=O)NCCc1cc2ccc(C)cc2nc1O
RESULT: 39.8 µM (inconclusive)
